Taken from patent US10336761B2.

target: HIS-TGFβR1 T204D (Homo sapiens (Human), UniProt P36897, T204D); assay: HTRF probe-displacement assay, HIS-TGFβR1 T204D; conditions: 1 hour at room temperature
Sequence (P36897 34-503 T204D): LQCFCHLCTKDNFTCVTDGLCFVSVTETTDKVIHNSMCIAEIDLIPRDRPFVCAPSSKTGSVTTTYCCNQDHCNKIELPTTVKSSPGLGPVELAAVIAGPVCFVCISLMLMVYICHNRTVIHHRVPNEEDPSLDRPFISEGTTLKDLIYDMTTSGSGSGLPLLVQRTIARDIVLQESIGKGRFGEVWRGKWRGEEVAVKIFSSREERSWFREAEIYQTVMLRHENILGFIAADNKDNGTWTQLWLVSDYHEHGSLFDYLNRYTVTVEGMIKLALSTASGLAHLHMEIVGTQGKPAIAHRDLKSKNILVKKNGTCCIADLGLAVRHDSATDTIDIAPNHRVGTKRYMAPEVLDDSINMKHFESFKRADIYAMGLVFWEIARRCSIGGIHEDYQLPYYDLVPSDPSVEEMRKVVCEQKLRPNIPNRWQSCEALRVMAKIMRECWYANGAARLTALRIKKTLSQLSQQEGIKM
reported-property: log10 IC50 (log10 of the value in nM)
Each number you see is log10 of IC50, and the unit inside the log is nM.

Need log10 IC50 for each of these compounds.
1. COc1cccc(-c2nc(Nc3ccncc3F)c3c(CCN4CCN(C)CC4)ccn3n2)n1
2. Fc1cnccc1Nc1nc(-c2ccccn2)nn2ccc(CNCCCn3ccnc3)c12

1: 2.56; 2: 0.20

* * *

Give measured log10 of IC50 for each item. Keep answers brief.
biological target: HIS-TGFβR1 T204D (Homo sapiens (Human), UniProt P36897, T204D); test: HTRF probe-displacement assay, HIS-TGFβR1 T204D; conditions: 1 hour at room temperature
Please note: log10 values; quantity IC50; unit µM.

Check out these entries, answers already filled in.
Fc1cnccc1Nc1nc(-c2ccccn2)nn2ccc(CNCCC3CCCN3)c12 (stereo not shown); -2.44
NC(=O)c1cnccc1Nc1nc(-c2ccc(F)c(C(F)F)n2)nn2cccc12; -2.85
Fc1cnccc1Nc1nc(-c2cc(Cl)ccn2)nn2cccc12; -0.82
Fc1cnccc1Nc1nc(-c2ccccn2)nn2ccc(CNC34CC5CC(CC(C5)C3)C4)c12; -1.82
Cn1nccc1-c1nc(Nc2ccncc2Cl)c2cccn2n1; -0.44

Would you mind listing log10 of IC50 for each of the following compounds?
1. Cc1cccc(-c2nc(Nc3ccncc3F)c3c(CN4CC[C@H](O)C4)ccn3n2)n1
2. CS(=O)(=O)N(c1cc2c(Nc3ccncc3F)nc(-c3cccc(C(F)(F)F)n3)nn2c1)S(C)(=O)=O
3. CC(=O)Nc1cc(Nc2nc(-c3ccccn3)nn3ccc(CN4CCN(CCO)CC4)c23)ccn1
4. O=C(CC(F)(F)F)Nc1cc(Nc2nc(-c3cccc(C(F)(F)F)n3)nn3cccc23)ccn1
5. COc1cccc(-c2nc(Nc3ccnc(NCC(C)(C)O)c3)c3cccn3n2)n1
6. OC1CCN(Cc2ccn3nc(-c4ccccn4)nc(Nc4ccncc4F)c23)CC1
7. COc1cccc(-c2nc(Nc3ccncc3F)c3c(C(O)CN4CCC(N(C)C)CC4)ccn3n2)n1 (stereo not shown)

1: -3.31; 2: -1.28; 3: -2.92; 4: -2.29; 5: 0.52; 6: -3.24; 7: -0.59

Give log10 of IC50 for each of the items listed below.
1. CCOC(=O)c1cc2c(Nc3ccncc3)nc(-c3cccc(C)n3)nn2c1
2. CSc1nccc(-c2nc(Nc3ccncc3)c3cccn3n2)n1
3. Cc1nc(-c2nc(Nc3ccncc3C(=O)NCCN3CCCCC3)c3cccn3n2)ccc1F

1. -1.48
2. -2.16
3. -2.30

* * *

biological target: HIS-TGFβR1 T204D (Homo sapiens (Human), UniProt P36897, T204D); assay: HTRF probe-displacement assay, HIS-TGFβR1 T204D; conditions: 1 hour at room temperature
Kindly supply the reported IC50 values for the records listed here.
Give bare numbers, in nM.

CNC(=O)c1cc2c(Nc3ccncc3)nc(-c3cccc(C)n3)nn2c1 [Example 220]; 11

Hello, I would appreciate it if you could give IC50 for each entry below.
1. O=C(NC1CCOC1)c1cnccc1Nc1nc(-c2cccc(C(F)F)n2)nn2cccc12 (stereo not drawn) [Example 177]
2. O=C(NCCCN1CCCC1)c1cnccc1Nc1nc(-c2cccc(C(F)(F)F)n2)nn2cccc12 [Example 37]
3. Fc1cnccc1Nc1nc(-c2nc(C(F)(F)F)cs2)nn2cccc12 [Example 17]
4. Fc1cnccc1Nc1nc(-c2ccccn2)nn2ccc(CNCC3CNCCO3)c12 (stereo not drawn) [Example 299]
5. Cc1cccc(-c2nc(Nc3ccncc3C(=O)NCC(C)(C)O)c3cccn3n2)n1 [Example 156]
6. COc1cccc(-c2nc(Nc3ccncc3F)c3cccn3n2)n1 [Example 58]
7. COc1cccc(-c2nc(Nc3ccncc3F)c3cc(NS(=O)(=O)C4CC4)cn3n2)n1 [Example 107]
8. COc1cccc(-c2nc(Nc3ccncc3F)c3c(C(O)CNCCN4CCCCC4)ccn3n2)n1 (stereo not drawn) [Example 130]

1: 21; 2: 47; 3: 0.72; 4: 23; 5: 50; 6: 4; 7: 81; 8: 540

Hey, quick one: what's IC50 for each of these?
1. Fc1cnccc1Nc1nc(-c2ncccc2F)nn2cccc12 [Example 260]
2. CC(=O)Nc1cc(Nc2nc(-c3ccc(F)c(C)n3)nn3cccc23)c(F)cn1 [Example 333]
3. O[C@H]1CCN(Cc2ccn3nc(-c4cccc(C(F)F)n4)nc(Nc4ccncc4F)c23)C1 [Example 251]

3.2
3.6
0.59

Please go through the list and note IC50 for each molecule.
1. CC(C)(C)OC(=O)N1CCN(CCNC(=O)c2cnccc2Nc2nc(-c3ccccn3)nn3cccc23)CC1 [Example 145]
2. COc1nc(-c2nc(Nc3ccncc3F)c3cccn3n2)cs1 [Example 249]
3. CN1CCN(Cc2ccn3nc(-c4ccccn4)nc(Nc4ccncc4F)c23)CC1 [Example 127]
4. O=C(CN1CCNCC1)Nc1cc(Nc2nc(-c3cccc(C(F)(F)F)n3)nn3cccc23)ccn1 [Example 322]
5. Nc1cccc(-c2nc(Nc3ccncc3F)c3cccn3n2)n1 [Example 53]
6. CCOCCCNC(=O)c1cnccc1Nc1nc(-c2cccc(C(F)F)n2)nn2cccc12 [Example 172]

1: 210; 2: 5.8; 3: 9.1; 4: 1.3; 5: 1.6; 6: 24
